# Target: Fuc(a1-2)Gal(b1-3)[Fuc(a1-4)]GlcNAc(b1-2)Man(a1-3)[Fuc(a1-2)Gal(b1-3)[Fuc(a1-4)]GlcNAc(b1-2)Man(a1-6)]Man(b1-4)GlcNAc(b1-4)GlcNAc
# Assay name: glycan array binding signal (z-score within array); higher = stronger binding
# Condition context: glycan notation: IUPAC condensed, linker removed
This excerpt belongs to a sample that is enriched for the strongest signals.
Readout kind: glycan array binding signal (z-score)

binder="Intelectin-1a (Mus musculus) (protein) AEWSHPQFEKAEENLDTNRWGNSFFSSLPRSCKEIKQEHTKAQDGLYFLRTKNGVIYQTFCDMTTAGGGWTLVASVHENNMRGKCTVGDRWSSQQGNRADYPEGDGNWANYNTFGSAEAATSDDYKNPGYFDIQAENLGIWHVPNKSPLHNWRKSSLLRYRTFTGFLQHLGHNLFGLYKKYPVKYGEGKCWTDNGPALPVVYDFGDARKTASYYSPSGQREFTAGYVQFRVFNNERAASALCAGVRVTGCNTEHHCIGGGGFFPEGNPVQCGDFASFDWDGYGTHNGYSSSRKITEAAVLLFYR" value_reported=2.9
binder="CALR truncated at D342 (Homo sapiens) (protein) EPAVYFKEQFLDGDGWTSRWIESKHKSDFGKFVLSSGKFYGDEEKDKGLQTSQDARFYALSASFEPFSNKGQTLVVQFTVKHEQNIDCGGGYVKLFPNSLDQTDMHGDSEYNIMFGPDICGPGTKKVHVIFNYKGKNVLINKDIRCKDDEFTHLYTLIVRPDNTYEVKIDNSQVESGSLEDDWDFLPPKKIKDPDASKPEDWDERAKIDDPTDSKPEDWDKPEHIPDPDAKKPEDWDEEMDGEWEPPVIQNPEYKGEWKPRQIDNPDYKGTWIHPEIDNPEYSPDPSIYAYDNFGVLGLDLWQVKSGTIFDNFLITNDEAYAEEFGNETWGVTKAAEKQMKD" value_reported=3.18
binder="LlpA1 (Pseudomonas fluorescens), Q4KHC3 (protein) MGSSHHHHHHSSGLVPRGSHMAWIRYDFTDNGSSVLPARYYMAPNQYLQSPNKRFKLLFQADGNLALYDGAQLAWVADQNTPFTNVSKGNKKDPMMVFMNYGFVLDDPLRGRIWSTTPSDPTMGSREDASLRAFTQVQDDGNIVTVDTIPHWYAPNGRVFTPAVGAAMIIGGTTELVPGQFYSAGEHSLVFQGDGNLVVYGPNSSVIWATYTQNKGGVRCVMQEDGNLVIYAANNGVVWQSGTGGHPGATIRLQANGSFTIVTERPVWARFGYTPTIKPPRVFYPDHKWKTGSYTWNNVF" value_reported=3.21
